B1: peptide HD2 (from tick evasin EVA4) / CXCL14 (biotinylated, synthetic) (parent)
chain 1: EEDDYTAYAPLTCYFT
chain 2: SKCKCSRKGPKIRYSDVKKLEMKPKYPHCEEKMVIITTKSVSRYRGQEHCLHPKLQSTKRFIKWYNAWNEKRRVYEE

Variants of: B1
CONDITION NOTES: with CXCL14 (biotinylated, synthetic); scale: log2
OBSERVED PROPERTY: enrichment
Answer with a number only.

The following variants have reported results that may help.
1) chain 1 D3M : -6.1
2) chain 1 F15E : -7.19
3) chain 1 C13F : -6.89
4) chain 1 Y14R : -8.35
5) chain 1 Y5R : -5.31

Dear colleague, I am looking for the recorded enrichment of the following variant: chain 1 E1P
-5.8

Next record, please: chain 1 Y14P
-7.11

Then what about the variant chain 1 E1K ?
-4.33

chain 1 E2R , same question.
-5.39
